assay: gradient 5% acetonitrile 3 min, to 50% in 2 min, to 85% in 15 min, held 3 min, 100 µL/min; conditions: column: Zorbax Extend-C18 2.1 x 50 mm; eluents: water / acetonitrile, 0.1% formic acid
Please note: RP-LC retention time exactly at 900 s is No. Only values below 900 s get Yes.

| molecule | class_label |
| --- | --- |
| Cc1ccc(NC(=O)NCCc2cn(CC(C)C)c3ncccc23)c(Cl)c1 | No |
| COc1ncc(C(=O)Nc2cc(C)ccc2F)c(C)n1 | Yes |
| Cc1ccc(C2Cn3cnc(C(=O)N4CCC(C(=O)NCCCc5ccccc5)CC4)c3CO2)cc1 (stereo not given) | Yes |
| Nc1nc2c(C(F)(F)F)cccc2s1 | Yes |
| COC(=O)c1c(-c2cccc(F)c2)noc1NCc1ccc(OC)cc1OC | Yes |

----------
assay: gradient 5% acetonitrile 3 min, to 50% in 2 min, to 85% in 15 min, held 3 min, 100 µL/min; settings: column: Zorbax Extend-C18 2.1 x 50 mm; eluents: water / acetonitrile, 0.1% formic acid
Use TRUE when the recorded RP-LC retention time is no lower than 800 s; use FALSE when it is lower.

| compound | class_label |
| --- | --- |
| CCC(Sc1ccc(NC(=O)c2cccc(F)c2)nn1)C(=O)OC (centres undefined) | TRUE |
| O=C(O)C1CCN(c2nc3ccc(-c4ccccc4)nc3s2)CC1 | TRUE |
| Cc1ccc(NC(=O)COc2cc(C(F)(F)F)c3c(C)nn(C)c3n2)c(C)c1 | TRUE |
| CCOC(=O)C1CCN(C(=O)c2sc(Nc3ccc(F)cn3)nc2C)CC1 | FALSE |
| O=C(C1CCCN(c2ncnc3c2nc2n3CCCCC2)C1)N1CCN(c2ncccn2)CC1 (centres undefined) | FALSE |
| O=c1n(Cc2cccc(F)c2)nc2c(S(=O)(=O)N3CCCC3)cccn12 | TRUE |
| Cc1ccc(CNc2nc(-c3nnc(-c4ccccc4)o3)nc3ccccc23)o1 | TRUE |
| Cc1noc(C)c1S(=O)(=O)N1CCC(c2nc(CCOCc3ccccc3)no2)C1 (centres undefined) | TRUE |
| Cc1ccc(N2C(=O)CN(Cc3ccco3)[C@H]3CS(=O)(=O)C[C@H]32)cc1 | FALSE |
| CCC(=O)Nc1c(C)noc1/C=C/c1ccc(S(=O)(=O)N2CCC(C)CC2)s1 | TRUE |
| COc1cc([C@@H]2c3cc4c(cc3[C@H](O)[C@@H](CO)[C@@H]2C(=O)NCCCN(C)C)OCO4)cc(OC)c1OC | FALSE |
| COC(=O)c1cc2c(=O)n(CCc3ccc(OC)c(OC)c3)ccc2nc1C | FALSE |
| c1cc(Cc2nc(-c3ccc4c(c3)ncn4CCN3CCCCC3)no2)cs1 | FALSE |
| O=C(CCC(=O)N1CC2CCCN2c2ccccc21)NCc1ccco1 (centres undefined) | TRUE |
| O=C(NC1CC1)C1(CCO)CCN(Cc2ccccc2)C1 (centres undefined) | FALSE |
| CCN1C(=O)C(C)(C(=O)Nc2ccc(F)c(Cl)c2)Oc2cccnc21 (centres undefined) | TRUE |
| O=C(NCCN1CCCC1)C1CCN(c2nccnc2Sc2ccccc2)CC1 | FALSE |
| Cc1nc2nc(-c3ccco3)nn2c(N2CCN(c3ccccn3)CC2)c1C | FALSE |

----------
assay: gradient 5% acetonitrile 3 min, to 50% in 2 min, to 85% in 15 min, held 3 min, 100 µL/min; conditions: column: Zorbax Extend-C18 2.1 x 50 mm; eluents: water / acetonitrile, 0.1% formic acid
Each entry below lists one item and its recorded RP-LC retention time value.
endpoint_name: RP-LC retention time

| compound | endpoint_result |
| --- | --- |
| O=C(CN1CCN(C(=O)Nc2ccc(Cl)cc2)CC1=O)N1CCN(c2ccccn2)CC1 | 592 s |
| COCCC(=O)N1CC2CN(S(=O)(=O)c3ccc(C)cc3)CC(C1)O2 | 684 s |
| O=C(C(=O)N1CCN(C2CCCCC2)CC1)c1ccc[nH]1 | 588 s |
| CCc1c(C2CCN(C(=O)C3COc4ccccc4O3)CC2)noc1N (stereo not given) | 684 s |
| O=C(Cn1ccc2ccccc21)N1CCN(S(=O)(=O)C2CC2)CC1 | 563 s |
| CN(CCc1noc(COc2ccccc2)n1)C(=O)c1c(F)cccc1F | 872 s |
| O=C(Nc1ccc2c(c1)OCO2)c1cn(-c2cc(N3CCCC3)ncn2)cn1 | 808 s |
| Cc1cc(C)n(CCN2CCN(C(=O)Cc3cccs3)CC2)n1 | 548 s |
| COc1ccc(-c2nc(C)cc(C)c2CNC(=O)C(C)(C)C)cc1 | 613 s |
| O=C(NC1CCCC1)C1CCCN(c2ccc3cc(S(=O)(=O)N4CCCCC4)ccc3n2)C1 (stereo not given) | 781 s |

----------
test: gradient 5% acetonitrile 3 min, to 50% in 2 min, to 85% in 15 min, held 3 min, 100 µL/min; settings: column: Zorbax Extend-C18 2.1 x 50 mm; eluents: water / acetonitrile, 0.1% formic acid
Reported RP-LC retention time values are given for each entry in this list.

| molecule | RP-LC retention time [s] |
| --- | --- |
| Cc1csc(CN2CCN(C(=O)c3cc(Cl)ccc3Cl)CC2)n1 | 654 |
| CCCNC(=O)C1CCN(c2ccc(SCC(=O)Nc3cccc(F)c3)nn2)CC1 | 645 |
| CC(C)N1CCn2cc(S(=O)(=O)Nc3cccc(Cl)c3)cc2C1=O | 805 |
| Cn1cc2c3c(cccc31)CN(C(=O)Nc1ccc(Cl)cc1F)CC2 | 1250 |
| CC(C)c1noc(-c2cc(=O)n(CC(=O)NCc3ccccc3F)c3ccccc23)n1 | 959 |
| Cn1c(C(=O)NCCCN2CCCC2=O)cc2c(=O)oc3ccccc3c21 | 668 |
| Cc1nc(C)c(CCNC(=O)c2ccc(C)c([N+](=O)[O-])c2)s1 | 614 |
| Cc1cc(=O)n(CC(=O)N2CCN(c3ccc(F)cc3)CC2)c(-c2ccc(F)cc2)n1 | 1010 |
| CCN(c1cccc(C)c1)S(=O)(=O)c1cc(-c2[nH]ncc2C(=O)N2CCCC2)oc1C | 819 |
| COC(=O)c1ccc2c(=O)n(-c3ccc(C)cc3)c(N3CCN(c4ccccn4)CC3)nc2c1 | 728 |
| Fc1ccc(CN2CCC3(CC2)N=C(C2CC2)NO3)cc1 | 583 |
| O=C(c1ccc2cc[nH]c2c1)N1C[C@@H]2C[C@H]1C[C@@H]2NS(=O)(=O)c1cccs1 | 754 |
| Cc1ccc(-c2[nH]ncc2CNS(=O)(=O)c2cccc3nsnc23)cc1C | 802 |
| Cc1nc(-c2ccc3c(c2)n(CC(=O)NC2CCCC2)c(=O)n3C(C)C)no1 | 780 |
| CC(C)CNC(=O)/C=C\C(=O)O | 717 |
| C=CCN1C(=O)COc2ccc(-c3nc(NC(=O)c4ccccc4C)sc3C)cc21 | 1050 |
| CC(C)c1ccc(C(O)Cn2ccn3nc(-c4ccc(F)cc4)cc3c2=O)cc1 (centres undefined) | 1110 |
| CCOC(=O)c1ccc(NC(=O)c2cc3ccccc3c(=O)s2)cc1 | 947 |
| CC(=O)Nc1onc(C)c1-c1ccc(C)c(S(=O)(=O)N2CCN(C3CCCCC3)CC2)c1 | 629 |

----------
experiment: gradient 5% acetonitrile 3 min, to 50% in 2 min, to 85% in 15 min, held 3 min, 100 µL/min; details: column: Zorbax Extend-C18 2.1 x 50 mm; eluents: water / acetonitrile, 0.1% formic acid
# label = t if RP-LC retention time < 800 s else f

| compound | class_label |
| --- | --- |
| COc1cccc(CNC(=O)Cn2cnc3nc(N4CCCC(C(=O)NC5CC5)C4)sc3c2=O)c1 (centres undefined) | t |
| CCSc1nnc(-c2nn(C)c3c2CN(S(=O)(=O)Cc2ccccc2Cl)CC3)n1CC | f |
| COCCn1cc2c3c(cccc31)CN(C(=O)Nc1cc(OC)cc(OC)c1)CC2 | f |
| Cc1ccc(-c2csc(NC(=O)Cc3csc(C)n3)n2)cc1 | f |
| COC(=O)c1c(C)[nH]c(C(=O)N2CCC(CC(=O)NCc3ccc(SC)cc3)CC2)c1C | t |
| COc1ccc(NC(=O)c2cc3c(s2)CN(C2CCCC2)C3)c(C)c1 | t |
| COc1ccc(NC(=O)N2CCc3cn(CC(C)C)c4cccc(c34)C2)cc1 | f |

----------
assay: gradient 5% acetonitrile 3 min, to 50% in 2 min, to 85% in 15 min, held 3 min, 100 µL/min; settings: column: Zorbax Extend-C18 2.1 x 50 mm; eluents: water / acetonitrile, 0.1% formic acid
Criterion: RP-LC retention time meeting or surpassing 700 s. Met: class 1. Not met: class 0.

| compound | class_label |
| --- | --- |
| COC(=O)c1ccc(NC(=O)N2CCCC2c2c(C)noc2C)cc1 (stereo not given) | class 1 |
| COc1ccccc1-c1nnc(-c2ccc(OC)c(S(=O)(=O)N3CCCC3)c2)o1 | class 1 |
| COc1ccc(NS(=O)(=O)c2cc3n(c2)CCCNC3=O)cc1Cl | class 0 |
| CCC(C)NC(=O)c1ccn[nH]1 (stereo not given) | class 0 |
| COc1cccc(COC(=O)C2=CN(C)S(=O)(=O)N=C2C)c1 | class 1 |
| CN(C(=O)c1ccc(F)cc1C(F)(F)F)C1CCN(c2nnc(-c3ccnn3C)c3ccccc23)CC1 | class 1 |
| O=C(c1ccc(Cl)nc1)N1CCCC1c1nc(-c2cccc(C(F)(F)F)c2)no1 (stereo not given) | class 1 |
| O=C(NCCc1nc2cccnc2n1-c1ccccc1)c1ccsc1 | class 0 |
| COc1ccc(NC(=O)N(C)CCc2noc(COc3ccccc3F)n2)cc1 | class 1 |
| CC(=O)N1CCc2cc(N3CC(C(=O)N4CCN(C5CCCCC5)CC4)CC3=O)ccc21 (stereo not given) | class 0 |
| CCc1ccc(-c2noc(CN3C(=O)COc4ccc(C)cc43)n2)cc1 | class 1 |
| O=C(c1cnccn1)N1CCCCC1c1nncn1Cc1ccccc1 (stereo not given) | class 0 |
| CC1CCN(C(=O)C2CCN(S(C)(=O)=O)c3ccccc3O2)CC1 (stereo not given) | class 1 |
| Fc1cc(F)c2nc(NCc3ccco3)sc2c1 | class 1 |
| Cc1ccnc(N2CCC(C(=O)NC(C)c3ccc4c(c3)OCCO4)CC2)n1 (stereo not given) | class 0 |
